- System: Vero cells
- Measurement Parameters: Vero cells, 10 μM; 1 = DMSO-treated infected cells
Measured Property: PrestoBlue relative viability

compound="CN(C)CC/C=C1/c2ccccc2Sc2ccc(Cl)cc21.Cl [Chlorprothixene (hydrochloride)]" target_or_system="Vero cells" measured_property="PrestoBlue relative viability" reported_measurement=0.8299
compound=COc1nc2ccc(Br)cc2cc1[C@@H](c1ccccc1)[C@@](O)(CCN(C)C)c1cccc2ccccc12 target_or_system="Vero cells" measured_property="PrestoBlue relative viability" reported_measurement=0.8784
compound=CCOC(=O)C1=C(C)NC(C)=C(C(=O)OCC)C1c1ccccc1/C=C/C(=O)OC(C)(C)C target_or_system="Vero cells" measured_property="PrestoBlue relative viability" reported_measurement=0.86
compound="Nc1cccc2c1CN(C1CCC(=O)NC1=O)C2=O (stereo not shown) [Lenalidomide (CC-5013), Lenalidomide]" target_or_system="Vero cells" measured_property="PrestoBlue relative viability" reported_measurement=2.058
compound="COc1nc2ccc(Br)cc2cc1[C@@H](c1ccccc1)[C@@](O)(CCN(C)C)c1cccc2ccccc12.O=C(O)/C=C/C(=O)O [Bedaquiline fumarate]" target_or_system="Vero cells" measured_property="PrestoBlue relative viability" reported_measurement=1.113
compound="COC(=O)C1=C(C)NC(C)=C(C(=O)O[C@@H]2CCCN(Cc3ccccc3)C2)[C@@H]1c1cccc([N+](=O)[O-])c1.Cl (racemic) [Benidipine HCl]" target_or_system="Vero cells" measured_property="PrestoBlue relative viability" reported_measurement=0.8086
compound="Clc1ccc(CCC(Cn2ccnc2)Sc2c(Cl)cccc2Cl)cc1 (stereo not shown) [Butoconazole nitrate]" target_or_system="Vero cells" measured_property="PrestoBlue relative viability" reported_measurement=0.6922
compound=CC1=NN(c2ccc(C)c(C)c2)C(=O)/C1=N\Nc1cccc(-c2cccc(C(=O)O)c2)c1O target_or_system="Vero cells" measured_property="PrestoBlue relative viability" reported_measurement=0.7191
compound=Cc1ccc(NC(=O)c2ccc(CN3CCN(C)CC3)cc2)cc1Nc1nc(-c2cccnc2)cs1 target_or_system="Vero cells" measured_property="PrestoBlue relative viability" reported_measurement=1.308
compound=Oc1c(Cl)cc(Cl)c2cccnc12 target_or_system="Vero cells" measured_property="PrestoBlue relative viability" reported_measurement=0.5777
compound=Oc1cc(Cl)ccc1Oc1ccc(Cl)cc1Cl target_or_system="Vero cells" measured_property="PrestoBlue relative viability" reported_measurement=0.5234
compound=CC(C)(Sc1cc(C(C)(C)C)c(O)c(C(C)(C)C)c1)Sc1cc(C(C)(C)C)c(O)c(C(C)(C)C)c1 target_or_system="Vero cells" measured_property="PrestoBlue relative viability" reported_measurement=0.7536
compound="CCc1cnn2c(NCc3ccc[n+]([O-])c3)cc(N3CCCC[C@H]3CCO)nc12 [Dinaciclib (SCH727965), Dinaciclib]" target_or_system="Vero cells" measured_property="PrestoBlue relative viability" reported_measurement=0.664
compound="Cl.Fc1ccc([C@@H]2CCNC[C@H]2COc2ccc3c(c2)OCO3)cc1 [Paroxetine HCl]" target_or_system="Vero cells" measured_property="PrestoBlue relative viability" reported_measurement=1.088
compound=C[C@]12CC[C@H](O)CC1=CC[C@@H]1[C@@H]2CC[C@]2(C)C(c3cccnc3)=CC[C@@H]12 target_or_system="Vero cells" measured_property="PrestoBlue relative viability" reported_measurement=0.5649
compound=C=CC(=O)Nc1cccc(Nc2nc(Nc3ccc(N4CCN(C(C)=O)CC4)cc3OC)ncc2C(F)(F)F)c1 target_or_system="Vero cells" measured_property="PrestoBlue relative viability" reported_measurement=0.5096

* * *

Overview of recorded Reads Counts per second (read 1) for various molecules
- Tested on: recombinant NLuc
- Format: biochemical
- Measurement Parameters: recombinant NLuc, first read column
Structures can show the parent of a compound that is named as a salt. *1 amine or outer side, *2 acyl side, *3 side chain or, on linkers, in order; H or OH if unused. Where a SMILES comes first, the peptide text is derived from it. Bridges are numbered along the chain shown (N, C = ends). [ ]: non-standard residue; d: D form. The star is where a group is joined. pTerphenylCO(4''-OnC5H11) = CCCCCOc1ccc(-c2ccc(-c3ccc(C(=O)*)cc3)cc2)cc1; Orn(4R-OH,5R-OH) = O=C([C@H](C[C@@H](O)[C@@H](O)N[*:3])N[*:1])[*:2]; hTyr(3S-OH,4S-OH) = N[C@H](C(=O)O)[C@H](O)[C@@H](O)c1ccc(O)cc1; Pro(3S-OH,4S-Me) = C[C@H]1CN[C@H](C(=O)O)[C@H]1O; Hyp = O=C(O)[C@@H]1C[C@@H](O)CN1
Measured Property: Reads Counts per second (read 1) (Counts per second)

molecule="CCN(CC)Cc1cc(Nc2ccnc3cc(Cl)ccc23)ccc1O [Amodiaquine, Amodiaquine dihydrochloride dihydrate]" reported_measurement=351271
molecule=O=C1C(O)=C([C@H]2CC[C@H](c3ccc(Cl)cc3)CC2)C(=O)c2ccccc21 reported_measurement=224278
molecule=N#CC[C@H](C1CCCC1)n1cc(-c2ncnc3[nH]ccc23)cn1 reported_measurement=314540
molecule=O=C(O)[C@H]1O[C@@H](Oc2cc3oc(-c4ccccc4)cc(=O)c3c(O)c2O)[C@H](O)[C@@H](O)[C@@H]1O reported_measurement=353023
molecule="Cn1c(=O)cc(N2CCC[C@@H](N)C2)n(Cc2ccccc2C#N)c1=O [Alogliptin Benzoate]" reported_measurement=316906
molecule=C[C@]12CC[C@H](O)CC1=CC[C@@H]1[C@@H]2CC[C@]2(C)C(c3cccnc3)=CC[C@@H]12 reported_measurement=279631
molecule="COc1cccc2c1C(=O)c1c(O)c3c(c(O)c1C2=O)C[C@@](O)(C(=O)CO)C[C@@H]3O[C@H]1C[C@H](N)[C@@H](O)[C@H](C)O1 [Epirubicin HCl]" reported_measurement=298948
molecule="COc1ccccc1OCC(O)CN1CCN(CC(=O)Nc2c(C)cccc2C)CC1 (centres unmarked)" reported_measurement=359507
molecule="Cc1[nH]cnc1CN1CCc2c(c3ccccc3n2C)C1=O [Alosetron Hydrochloride]" reported_measurement=328498
molecule="Cl.Fc1ccc([C@@H]2CCNC[C@H]2COc2ccc3c(c2)OCO3)cc1 [Paroxetine HCl]" reported_measurement=360169
molecule=CC(C)(Sc1cc(C(C)(C)C)c(O)c(C(C)(C)C)c1)Sc1cc(C(C)(C)C)c(O)c(C(C)(C)C)c1 reported_measurement=337686
molecule="COC(=O)C1=C(C)NC(C)=C(C(=O)OCCN2CCN(C(c3ccccc3)c3ccccc3)CC2)C1c1cccc([N+](=O)[O-])c1 (centres unmarked)" reported_measurement=249924
molecule="CCS(=O)(=O)N1CC(CC#N)(n2cc(-c3ncnc4[nH]ccc34)cn2)C1 [Baricitinib phosphate]" reported_measurement=337511
molecule="O=C(O)COCCN1CCN(C(c2ccccc2)c2ccc(Cl)cc2)CC1 (centres unmarked)" reported_measurement=170134
molecule=Cc1ccnc2c1NC(=O)c1cccnc1N2C1CC1 reported_measurement=371882
molecule=CC[C@@H]([C@H](C)O)n1ncn(-c2ccc(N3CCN(c4ccc(OC[C@@H]5CO[C@@](Cn6cncn6)(c6ccc(F)cc6F)C5)cc4)CC3)cc2)c1=O reported_measurement=325406
molecule="CCCCCOc1ccc(-c2ccc(-c3ccc(C(=O)N[C@H]4C[C@@H](O)[C@@H](O)NC(=O)[C@@H]5[C@@H](O)[C@@H](C)CN5C(=O)[C@H]([C@@H](C)O)NC(=O)[C@H]([C@H](O)[C@@H](O)c5ccc(O)cc5)NC(=O)[C@@H]5C[C@@H](O)CN5C(=O)[C@H]([C@@H](C)O)NC4=O)cc3)cc2)cc1 [Anidulafungin] ({pTerphenylCO(4''-OnC5H11)}-[Orn(4R-OH,5R-OH)]T[Hyp][hTyr(3S-OH,4S-OH)]T[Pro(3S-OH,4S-Me)]; lactam 1-C)" reported_measurement=365229
molecule=CCN1CCN(Cc2ccc(Nc3ncc(F)c(-c4cc(F)c5nc(C)n(C(C)C)c5c4)n3)nc2)CC1 reported_measurement=345999
molecule="COc1nc2ccc(Br)cc2cc1[C@@H](c1ccccc1)[C@@](O)(CCN(C)C)c1cccc2ccccc12.O=C(O)/C=C/C(=O)O [Bedaquiline fumarate]" reported_measurement=351974
molecule=C[C@H]1CN(C[C@H](Cc2ccccc2)C(=O)NCC(=O)O)CC[C@@]1(C)c1cccc(O)c1 reported_measurement=338215
molecule=COc1nc2ccc(Br)cc2cc1[C@@H](c1ccccc1)[C@@](O)(CCN(C)C)c1cccc2ccccc12 reported_measurement=348601
molecule=C=CC(=O)Nc1cccc(Nc2nc(Nc3ccc(N4CCN(C(C)=O)CC4)cc3OC)ncc2C(F)(F)F)c1 reported_measurement=327566
molecule=NC(=O)CC[C@H](N)C(=O)O reported_measurement=349150
molecule=COc1cc2c(Oc3ccc4[nH]c(C)cc4c3F)ncnc2cc1OCCCN1CCCC1 reported_measurement=350524
molecule=C[C@](N)(Cc1ccc(O)c(O)c1)C(=O)O reported_measurement=361429
molecule=Cc1cnc(NC(=O)C2=C(O)c3ccccc3S(=O)(=O)N2C)s1 reported_measurement=308460
molecule="O=C(c1ccc(OCCN2CCCCC2)cc1)c1c(-c2ccc(O)cc2)sc2cc(O)ccc12 [Raloxifene HCl]" reported_measurement=334037
molecule=C=C1/C(=C\C=C2/CCC[C@]3(C)[C@@H]([C@H](C)/C=C/[C@H](C)C(C)C)CC[C@@H]23)C[C@@H](O)C[C@@H]1O reported_measurement=361602
molecule="CN(C)CC/C=C1/c2ccccc2Sc2ccc(Cl)cc21.Cl [Chlorprothixene (hydrochloride)]" reported_measurement=359664

Cited source for all entries: paper PMC8428568
